The measurements presented in this section are drawn from patent US20060069132A1.

# Test system: Surinam grass
# Assay method text: Test C pre-/postemergence herbicide test
# Type: in vivo, Urochloa decumbens
# Applied conditions: 125 g ai/ha; scale 0 (no effect) to 100 (complete control); visual, 12 to 14 days; preemergence
# Source text: […]
Readout: Plant response rating, Surinam Grass
API doc: respond with a numeric literal and nothing else, no unit.

Record request: Plant response rating, Surinam Grass value, item CC(=NO)c1cccc(NC(=O)c2sc(C(C)(C)C)nc2C)c1 [Compound 195]
0

Record request: Plant response rating, Surinam Grass value, item CCNC(=O)c1cccc(NC(=O)c2sc(C(C)(C)C)nc2C)c1 [Compound 198]
10

Record request: Plant response rating, Surinam Grass value, item C#CCn1nc(C(C)(C)C)cc1C(=O)Nc1cccc(C(=O)NCC)c1 [Compound 50]
10

Record request: Plant response rating, Surinam Grass value, item CCn1nc(C(C)(C)C)cc1C(=O)Nc1cccc(SC)c1 [Compound 131]
0

Record request: Plant response rating, Surinam Grass value, item CCCN1CCc2c(NC(=O)c3cc(C(C)(C)C)nn3CC)cccc2C1=O [Compound 65]
0

---

# Test system: broadleaf signalgrass
# Assay method text: Test E pre-/postemergence herbicide test
# Assay type: in vivo, Brachiaria platyphylla
# Applied conditions: Preemergence; 500 g ai/ha; scale 0 (no effect) to 100 (complete control)
I'd appreciate it if you could supply Plant response rating, Signalgrass values for the items below.
API doc: respond with a numeric literal and nothing else, no unit.

Record request: Plant response rating, Signalgrass value, item CCc1nn(C(C)(C)C)nc1C(=O)Nc1cccc(C(=O)N(C)CC)c1
80

Record request: Plant response rating, Signalgrass value, item CCNC(=O)c1cccc(NC(=O)c2nn(C(C)(C)C)nc2C)c1
85

Record request: Plant response rating, Signalgrass value, item CCn1nc(C(C)(C)C)cc1C(=O)Nc1cccc(C(N)=O)n1
100

Record request: Plant response rating, Signalgrass value, item CCn1nc(C2(C)CC2)cc1C(=O)Nc1cc(C(=O)N(C)C)ccc1F
100

Record request: Plant response rating, Signalgrass value, item CCNC(=O)c1ccc(F)c(NC(=O)c2cc(C(C)(C)C)nn2CC)c1
90

---

I'd appreciate it if you could supply Sedge, Umbrella plant response rating values for the items below.
# Tested on: smallflower umbrella sedge
# Assay method text: Test C flooded paddy test
# Assay type: in vivo, Cyperus difformis
# Applied conditions: 125 g ai/ha, scale 0 to 100 (0 no effect, 100 complete control)
API doc: respond with a numeric literal and nothing else, no unit.

Record request: Sedge, Umbrella plant response rating value, item CCN(C)C(=O)c1cncc(NC(=O)c2cc(C(C)(C)C)nn2CC)c1
0

Record request: Sedge, Umbrella plant response rating value, item CCc1nc(C(C)(C)C)sc1C(=O)Nc1cccc(C(=O)N(C)C)c1
80

Record request: Sedge, Umbrella plant response rating value, item CCc1nn(C(C)(C)C)nc1C(=S)Nc1cccc(C(=S)N(C)C)c1
75

Record request: Sedge, Umbrella plant response rating value, item CCNC(=O)c1cccc(NC(=O)c2sc(C(C)(C)C)nc2CC)c1
80

Record request: Sedge, Umbrella plant response rating value, item CCc1nn(C(C)(C)CC)nc1C(=O)Nc1cc(C(=O)N(C)C)ccc1F
75

Record request: Sedge, Umbrella plant response rating value, item CCc1nn(C(C)(C)C)nc1C(=O)Nc1cccc(C(=O)N(C)CC)c1
80

Record request: Sedge, Umbrella plant response rating value, item CCn1nc(C(C)(C)C)cc1C(=O)Nc1cc(C(=S)N(C)C)ccn1
90

Record request: Sedge, Umbrella plant response rating value, item CCOC(=O)c1ccc(F)c(NC(=O)C2CN(C(C)(C)C)N=C2CC)c1 (racemic)
85

Record request: Sedge, Umbrella plant response rating value, item CCn1nc(C(C)(C)C)cc1C(=O)Nc1cccc(C(=O)N2CCOCC2)n1
0

Record request: Sedge, Umbrella plant response rating value, item CCNC(=O)c1ccc(F)c(NC(=O)c2c3c(nn2CC)C(C)(C)CC3)c1
0

Record request: Sedge, Umbrella plant response rating value, item CCNC(=O)c1cccc(NC(=O)c2nn(C(C)(C)C)cc2Cl)c1
0

Record request: Sedge, Umbrella plant response rating value, item CCNC(=O)c1ccc(OC)c(NC(=O)c2cc(C(C)(C)C)nn2CC)n1
20

Record request: Sedge, Umbrella plant response rating value, item CCC1=NN(C(C)(C)C)CC1C(=O)Nc1cc(C(=O)N(C)C)ccc1F (racemic)
40

Record request: Sedge, Umbrella plant response rating value, item CCn1nc(C2(C)CC2)cc1C(=O)Nc1cc(C(=O)N(C)C)ccc1F
95

Record request: Sedge, Umbrella plant response rating value, item CCOC(=O)c1cccc(NC(=O)c2cn(C(C)(C)C)nc2CC)c1
80

Record request: Sedge, Umbrella plant response rating value, item C=CCNC(=O)c1ccc(F)c(NC(=O)c2nn(C(C)(C)C)nc2CC)c1
45

Record request: Sedge, Umbrella plant response rating value, item CCOC(=O)c1cncc(NC(=O)c2cc(C(C)(C)C)nn2CC)c1
20

---

# Tested on: large crabgrass
# Assay method text: Test B pre-/postemergence herbicide test
# Type: in vivo, Digitaria sanguinalis
# Applied conditions: postemergence, 125 g ai/ha; visual rating, scale 0 (no effect) to 100 (complete control)
# Description: […] At the same time, plants selected from these crop and weed species and also blackgrass (Alopecurus myosuroides Huds.), wheat (Triticum aestivum L.) and wild oat (Avena fatua L.) were treated with postemergence applications of test chemicals formulated in the same manner. […] Treated plants and controls were maintained in a greenhouse for 13 to 15 days, after which time all species were compared to controls and visually evaluated. […]
Readout: Crabgrass, Large plant response rating
API doc: respond with a numeric literal and nothing else, no unit.

Record request: Crabgrass, Large plant response rating value, item CC(=NO)c1cccc(NC(=O)c2sc(C(C)(C)C)nc2C)c1 [Compound 195]
20

Record request: Crabgrass, Large plant response rating value, item CCN(CC)C(=O)c1cc(NC(=O)c2cc(C(C)(C)C)nn2CC)c(F)cc1F [Compound 253]
0

Record request: Crabgrass, Large plant response rating value, item C=CCN(C)C(=O)c1cccc(NC(=O)c2cc(C(C)(C)C)nn2CC)c1 [Compound 285]
0

Record request: Crabgrass, Large plant response rating value, item CCNC(=O)c1cccc(NC(=O)c2sc(C(C)(C)C)nc2CC)n1 [Compound 213]
0

Record request: Crabgrass, Large plant response rating value, item CCOC(=O)c1ccc(F)c(NC(=O)c2cc(C(C)(C)C)nn2CC)c1 [Compound 70]
20

Record request: Crabgrass, Large plant response rating value, item CCNC(=O)c1cccc(NC(=O)c2nn(C(C)(C)C)cc2Cl)c1 [Compound 219]
0

Record request: Crabgrass, Large plant response rating value, item CCOC(=O)c1cccc(NC(=O)c2cn(C(C)(C)C)nc2CC)c1 [Compound 186]
10

Record request: Crabgrass, Large plant response rating value, item CC(=NO)c1cccc(NC(=O)c2cc(C(C)(C)C)nn2CCF)c1 [Compound 115]
10

Record request: Crabgrass, Large plant response rating value, item C=CCNC(=O)c1ccc(F)c(NC(=O)c2sc(CC)nc2C(C)(C)C)c1 [Compound 237]
10

---

# Tested on: velvetleaf
# Assay method text: Test B pre-/postemergence herbicide test
# Format: in vivo, Abutilon theophrasti
# Applied conditions: preemergence, 125 g ai/ha; 0 to 100 scale, 0 is no effect, 100 is complete control
I'd appreciate it if you could supply Plant response rating, Velvetleaf values for the items below.

Record request: Plant response rating, Velvetleaf value, item C=Cn1nc(C(C)(C)C)cc1C(=O)Nc1cccc(C(=O)NCC)c1
40

Record request: Plant response rating, Velvetleaf value, item CCCCn1nc(C(C)(C)C)cc1C(=O)Nc1cccc(C(C)=NO)c1
0

Record request: Plant response rating, Velvetleaf value, item CCOC(=O)c1ccc(F)c(NC(=O)c2cc(C(C)(C)C)nn2CC)c1
30

Record request: Plant response rating, Velvetleaf value, item CCn1nc(C(C)(C)C)cc1C(=O)Nc1cc(C(=O)NCCOC)ccn1
20

Record request: Plant response rating, Velvetleaf value, item CC(C)NS(=O)(=O)c1cccc(NC(=O)c2cc(C(C)(C)C)nn2C)c1
0

---

# Tested on: barnyardgrass
# Assay method text: Test B pre-/postemergence herbicide test
# Assay type: in vivo, Echinochloa crus-galli
# Applied conditions: preemergence, 125 g ai/ha; 0 to 100 scale, 0 is no effect, 100 is complete control
Please note: Plant response rating, Barnyardgrass exactly at 50 is Criterion not met. Only values below 50 get Criterion met.

Does this compound meet the criterion Plant response rating, Barnyardgrass < 50? CC(C)NS(=O)(=O)c1cccc(NC(=O)c2cc(C(C)(C)C)nn2C)c1 [Compound 124]
Criterion met

Does this compound meet the criterion Plant response rating, Barnyardgrass < 50? CCCOC(=O)c1cccc(NC(=O)c2cc(C(C)(C)C)nn2CC)c1C [Compound 90]
Criterion met

Does this compound meet the criterion Plant response rating, Barnyardgrass < 50? C=Cn1nc(C(C)(C)C)cc1C(=O)Nc1cccc(C(C)=O)c1 [Compound 127]
Criterion met

Does this compound meet the criterion Plant response rating, Barnyardgrass < 50? CCOC(=O)c1cc(NC(=O)c2cc(C(C)(C)C)nn2CC)ccc1C [Compound 99]
Criterion met

Does this compound meet the criterion Plant response rating, Barnyardgrass < 50? CCOC(=O)c1cccc(NC(=O)c2cc(C(C)(C)C)nn2CC)c1C [Compound 88]
Criterion not met

Does this compound meet the criterion Plant response rating, Barnyardgrass < 50? CCn1nc(C(C)(C)C)cc1C(=O)Nc1nc(OC)cc(OC)n1 [Compound 166]
Criterion met

Does this compound meet the criterion Plant response rating, Barnyardgrass < 50? CCON=C(C)c1cccc(NC(=O)c2cc(C(C)(C)C)nn2C)c1 [Compound 105]
Criterion met

Does this compound meet the criterion Plant response rating, Barnyardgrass < 50? CCOC(=O)c1cccc(NC(=O)c2cc(C(C)(C)C)nn2CC)c1OC [Compound 97]
Criterion met

Does this compound meet the criterion Plant response rating, Barnyardgrass < 50? CCn1nc(C(C)(C)C)cc1C(=O)Nc1cccc(C(N)=O)n1 [Compound 162]
Criterion not met

Does this compound meet the criterion Plant response rating, Barnyardgrass < 50? CCn1nc(C(C)(C)C)cc1C(=O)Nc1cc(C(=O)N2CC=CC2)ccn1 [Compound 142]
Criterion not met

Does this compound meet the criterion Plant response rating, Barnyardgrass < 50? CCn1nc(C(C)(C)C)cc1C(=O)Nc1cccc(SC)c1 [Compound 131]
Criterion not met
